HC10 values for the molecules below.
- Tested on: Erythrocyte
- Experiment Summary: Hemolytic activity in mouse red blood cell assessed as hemolysis incubated for 1 hr
- Assay type: toxicity, cell-based
- Conditions: dose 4-256 µg/ml
Write the value in µg/mL as a bare number.

CCCCCCCCCCCCCC(=O)N[C@@H](CCN)C(=O)N[C@H](C(=O)N[C@@H](CCN)C(=O)N[C@H](Cc1ccccc1)C(=O)N[C@@H](CC(C)C)C(=O)N[C@@H](CCN)C(=O)N[C@@H](C(=O)N[C@@H](CC(C)C)C(=O)N[C@H](C(N)=O)[C@@H](C)O)C(C)C)[C@@H](C)CC ... 32
CCCCCC(=O)N[C@@H](CCN)C(=O)N[C@H](C(=O)N[C@@H](CCN)C(=O)N[C@H](Cc1ccccc1)C(=O)N[C@@H](CC(C)C)C(=O)N[C@@H](CCN)C(=O)N[C@@H](C(=O)N[C@@H](CC(C)C)C(=O)N[C@H](C(N)=O)[C@@H](C)CC)C(C)C)[C@@H](C)CC ... 512
CCCCCCC(=O)N[C@@H](CCN)C(=O)N[C@H](C(=O)N[C@@H](CCN)C(=O)N[C@H](Cc1ccccc1)C(=O)N[C@@H](CC(C)C)C(=O)N[C@@H](CCN)C(=O)N[C@@H](C(=O)N[C@@H](CC(C)C)C(=O)N[C@H](C(N)=O)[C@@H](C)O)C(C)C)[C@@H](C)CC ... 256

Query: Find the measured HC10: item "CCCCCC(=O)N[C@@H](CCN)C(=O)N[C@H](C(=O)N[C@@H](CCN)C(=O)N[C@H](Cc1ccccc1)C(=O)N[C@@H](CC(C)C)C(=O)N[C@@H](CCN)C(=O)N[C@@H](C(=O)N[C@@H](CC(C)C)C(=O)N[C@@H](Cc1c[nH]c2ccccc12)C(N)=O)C(C)C)[C@@H](C)CC" , target or system Erythrocyte.
Response: 512

Query: Which HC10 is reported with Erythrocyte for this entry: CC[C@H](C)[C@H](NC(=O)[C@H](CCN)NC(=O)CC(O)C(C)C)C(=O)N[C@@H](CCN)C(=O)N[C@H](Cc1ccccc1)C(=O)N[C@@H](CC(C)C)C(=O)N[C@@H](CCN)C(=O)N[C@@H](C(=O)N[C@@H](CC(C)C)C(=O)N[C@H](C(N)=O)[C@@H](C)O)C(C)C (some centres not stated) ?
Response: 512

Query: Which measured HC10 belongs to "C/C=C(/NC(=O)[C@H](CC(C)C)NC(=O)[C@H](NC(=O)[C@H](CCN)NC(=O)[C@H](CC(C)C)NC(=O)[C@@H](Cc1ccccc1)NC(=O)[C@H](CCN)NC(=O)[C@@H](NC(=O)[C@H](CCN)NC(=O)C[C@@H](O)CCC)[C@@H](C)CC)C(C)C)C(=O)O" , tested on Erythrocyte?
Response: 512

Query: // fetch Erythrocyte HC10 for "CCCCCCCCCCC(=O)N[C@@H](CCN)C(=O)N[C@H](C(=O)N[C@@H](CCN)C(=O)N[C@H](Cc1ccccc1)C(=O)N[C@@H](CC(C)C)C(=O)N[C@@H](CCN)C(=O)N[C@@H](C(=O)N[C@@H](CC(C)C)C(=O)N[C@H](C(N)=O)[C@@H](C)O)C(C)C)[C@@H](C)CC"
Response: 16

* * *

- Tested on: Bacillus subtilis
- Experiment Summary: Antibacterial activity against Bacillus subtilis ATCC 23857 assessed as bacterial growth inhibition incubated for 18 hrs by broth microdilution method
- Type: functional
Where a SMILES comes first, the peptide text is derived from it. [ ]: non-standard residue; d: D form. The star is where a group is joined. Dab = NCC[C@H](N)C(=O)O; Hexanoyl = CCCCCC(=O)*
# maps each entry to its MIC
Answer format: numeric, µg/mL implied, no suffix.

CCCCCC(=O)N[C@@H](CCN)C(=O)N[C@H](C(=O)N[C@@H](CCN)C(=O)N[C@H](Cc1ccccc1)C(=O)N[C@@H](CC(C)C)C(=O)N[C@@H](CCN)C(=O)N[C@@H](C(=O)N[C@@H](CC(C)C)C(=O)N[C@@H](CO)C(N)=O)C(C)C)[C@@H](C)CC (Hexanoyl-[Dab]I[Dab][dF]L[Dab][dV]LS-NH2) ... 8
C/C=C(/NC(=O)[C@H](CC(C)C)NC(=O)[C@H](NC(=O)[C@H](CCN)NC(=O)[C@H](CC(C)C)NC(=O)[C@@H](Cc1ccccc1)NC(=O)[C@H](CCN)NC(=O)[C@@H](NC(=O)[C@H](CCN)NC(=O)C[C@@H](O)CCC)[C@@H](C)CC)C(C)C)C(=O)O ... 32
CC[C@H](C)[C@@H]1NC(=O)[C@H](CCN)NC(=O)C[C@@H](C(C)C)OC(=O)[C@H]([C@@H](C)O)NC(=O)[C@H](CC(C)C)NC(=O)[C@@H](C(C)C)NC(=O)[C@H](CCN)NC(=O)[C@H](CC(C)C)NC(=O)[C@@H](Cc2ccccc2)NC(=O)[C@H](CCN)NC1=O ... 4

Could you now look at the following molecule, please?
Query: Please give the measured MIC for this molecule: "CCCCCCCCCC(=O)N[C@@H](CCN)C(=O)N[C@H](C(=O)N[C@@H](CCN)C(=O)N[C@H](Cc1ccccc1)C(=O)N[C@@H](CC(C)C)C(=O)N[C@@H](CCN)C(=O)N[C@@H](C(=O)N[C@@H](CC(C)C)C(=O)N[C@H](C(N)=O)[C@@H](C)O)C(C)C)[C@@H](C)CC"
Response: 4

* * *

// values below are reported MIC
- Test system: Bacillus subtilis
- Experiment Summary: Antibacterial activity against Bacillus subtilis ATCC 23857 assessed as bacterial growth inhibition incubated for 18 hrs by broth microdilution method
- Assay type: functional
Write down the numeric answer in µg/mL and omit the unit.

Sample answers from the record:
CCCCCCCC(=O)N[C@@H](CCN)C(=O)N[C@H](C(=O)N[C@@H](CCN)C(=O)N[C@H](Cc1ccccc1)C(=O)N[C@@H](CC(C)C)C(=O)N[C@@H](CCN)C(=O)N[C@@H](C(=O)N[C@@H](CC(C)C)C(=O)N[C@H](C(N)=O)[C@@H](C)O)C(C)C)[C@@H](C)CC ... 4
CCCCCCC(=O)N[C@@H](CCN)C(=O)N[C@H](C(=O)N[C@@H](CCN)C(=O)N[C@H](Cc1ccccc1)C(=O)N[C@@H](CC(C)C)C(=O)N[C@@H](CCN)C(=O)N[C@@H](C(=O)N[C@@H](CC(C)C)C(=O)N[C@H](C(N)=O)[C@@H](C)O)C(C)C)[C@@H](C)CC ... 4
CC[C@H](C)[C@H](NC(=O)[C@H](CCN)NC(=O)CC(O)C(C)C)C(=O)N[C@@H](CCN)C(=O)N[C@H](Cc1ccccc1)C(=O)N[C@@H](CC(C)C)C(=O)N[C@@H](CCN)C(=O)N[C@@H](C(=O)N[C@@H](CC(C)C)C(=O)N[C@H](C(N)=O)[C@@H](C)O)C(C)C (stereo not given in full) ... 8
CCCCCC(=O)N[C@@H](CCN)C(=O)N[C@H](C(=O)N[C@H]1CCNC(=O)[C@H]([C@@H](C)O)NC(=O)[C@H](CC(C)C)NC(=O)[C@@H](C(C)C)NC(=O)[C@H](CCN)NC(=O)[C@H](CC(C)C)NC(=O)[C@@H](Cc2ccccc2)NC1=O)[C@@H](C)CC ... 4
CCCCCCCCC(=O)N[C@@H](CCN)C(=O)N[C@H](C(=O)N[C@@H](CCN)C(=O)N[C@H](Cc1ccccc1)C(=O)N[C@@H](CC(C)C)C(=O)N[C@@H](CCN)C(=O)N[C@@H](C(=O)N[C@@H](CC(C)C)C(=O)N[C@H](C(N)=O)[C@@H](C)O)C(C)C)[C@@H](C)CC ... 4

Query: # get_value(readout='MIC', item= "CCCCCC(=O)N[C@@H](CCN)C(=O)N[C@H](C(=O)N[C@@H](CCN)C(=O)N[C@H](Cc1ccccc1)C(=O)N[C@@H](CC(C)C)C(=O)N[C@@H](CCN)C(=O)N[C@@H](C(=O)N[C@@H](CC(C)C)C(=O)N[C@@H](Cc1c[nH]c2ccccc12)C(N)=O)C(C)C)[C@@H](C)CC" )
Response: 4

Query: Value lookup for MIC; key = "CCCCCCCCCCCCC(=O)N[C@@H](CCN)C(=O)N[C@H](C(=O)N[C@@H](CCN)C(=O)N[C@H](Cc1ccccc1)C(=O)N[C@@H](CC(C)C)C(=O)N[C@@H](CCN)C(=O)N[C@@H](C(=O)N[C@@H](CC(C)C)C(=O)N[C@H](C(N)=O)[C@@H](C)O)C(C)C)[C@@H](C)CC"
Response: 16

Query: Dear colleague, I am looking for the recorded MIC of the following compound: "CCCCCC(=O)N[C@@H](CCN)C(=O)N[C@H](C(=O)N[C@@H](CCN)C(=O)N[C@H](Cc1ccccc1)C(=O)N[C@@H](CC(C)C)C(=O)N[C@@H](CCN)C(=O)N[C@@H](C(=O)N[C@@H](CC(C)C)C(=O)N[C@@H](Cc1ccc(O)cc1)C(N)=O)C(C)C)[C@@H](C)CC"
Response: 4
